- target_entity: Proto-oncogene tyrosine-protein kinase receptor Ret (Rattus norvegicus, UniProt G3V9H8)
- Sequence (G3V9H8 whole entry): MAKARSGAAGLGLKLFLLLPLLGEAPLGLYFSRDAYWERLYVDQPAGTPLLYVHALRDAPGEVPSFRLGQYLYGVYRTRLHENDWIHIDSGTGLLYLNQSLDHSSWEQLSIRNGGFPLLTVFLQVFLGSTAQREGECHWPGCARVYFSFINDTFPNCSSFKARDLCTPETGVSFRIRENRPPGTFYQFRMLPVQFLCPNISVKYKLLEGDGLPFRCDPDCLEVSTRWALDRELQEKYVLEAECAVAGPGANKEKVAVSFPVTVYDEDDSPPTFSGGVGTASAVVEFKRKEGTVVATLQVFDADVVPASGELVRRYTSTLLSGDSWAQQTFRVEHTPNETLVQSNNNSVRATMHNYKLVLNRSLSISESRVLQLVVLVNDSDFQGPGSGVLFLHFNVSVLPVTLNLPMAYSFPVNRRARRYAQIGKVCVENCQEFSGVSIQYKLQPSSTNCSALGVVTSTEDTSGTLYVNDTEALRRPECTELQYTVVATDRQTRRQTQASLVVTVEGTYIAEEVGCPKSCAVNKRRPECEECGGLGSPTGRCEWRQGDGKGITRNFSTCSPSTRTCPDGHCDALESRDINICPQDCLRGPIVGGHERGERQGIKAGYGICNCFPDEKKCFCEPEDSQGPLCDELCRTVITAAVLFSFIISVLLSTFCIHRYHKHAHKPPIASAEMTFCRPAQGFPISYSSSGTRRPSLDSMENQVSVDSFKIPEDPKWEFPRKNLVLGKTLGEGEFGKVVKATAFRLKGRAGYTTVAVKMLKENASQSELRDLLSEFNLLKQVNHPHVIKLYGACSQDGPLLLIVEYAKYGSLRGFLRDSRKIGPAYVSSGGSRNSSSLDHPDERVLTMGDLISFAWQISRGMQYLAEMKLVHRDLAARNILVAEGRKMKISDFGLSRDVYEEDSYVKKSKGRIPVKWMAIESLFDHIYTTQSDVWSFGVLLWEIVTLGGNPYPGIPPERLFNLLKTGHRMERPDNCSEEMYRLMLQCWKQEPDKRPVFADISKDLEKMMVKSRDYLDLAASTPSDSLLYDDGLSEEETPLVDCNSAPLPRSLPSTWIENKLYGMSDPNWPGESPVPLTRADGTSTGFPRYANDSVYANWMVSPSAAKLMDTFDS
- assay_text: Binding affinity to RET in Sprague-Dawley rat colon tissue cell lysate using sepharose beads incubated for 45 mins by LC-MS/MS based chemoproteomics assay
measure: pKd
Please report pKd as the negative decimal logarithm of the molar concentration, giving only the number.

Request: I have this compound here, CCOc1cc(=O)[nH]cc1-c1ccc(CC(=O)Nc2cc(C(C)(C)C(F)(F)F)on2)c(F)c1 , and I need its recorded pKd.
Result: 7.70

---

- assay_text: Cmax in colon contents of Sprague-Dawley rat at 10 mg/kg, po bid administered 7 doses over 3.5 days
- Type: ADME, organism-based, Colon content
- Design: dose 10 mg/kg, route oral
measure: Cmax (µg/mL)
Answer format: numeric, µg/mL implied, no suffix.

Request: I have this compound here, CCOc1cc(=O)[nH]cc1-c1ccc(CC(=O)Nc2cc(C(C)(C)C(F)(F)F)on2)c(F)c1 , and I need its recorded Cmax.
Result: 288
